target: Peroxisome proliferator-activated receptor gamma (Homo sapiens) (UniProt P37231); experiment: ATG_PPARg_TRANS: Attagene TRANS-FACTORIAL HepG2 Assay for human Peroxisome Proliferator-activated Receptor-gamma (PPARg) (AID 2283007)
Sequence (P37231 whole entry, looked up): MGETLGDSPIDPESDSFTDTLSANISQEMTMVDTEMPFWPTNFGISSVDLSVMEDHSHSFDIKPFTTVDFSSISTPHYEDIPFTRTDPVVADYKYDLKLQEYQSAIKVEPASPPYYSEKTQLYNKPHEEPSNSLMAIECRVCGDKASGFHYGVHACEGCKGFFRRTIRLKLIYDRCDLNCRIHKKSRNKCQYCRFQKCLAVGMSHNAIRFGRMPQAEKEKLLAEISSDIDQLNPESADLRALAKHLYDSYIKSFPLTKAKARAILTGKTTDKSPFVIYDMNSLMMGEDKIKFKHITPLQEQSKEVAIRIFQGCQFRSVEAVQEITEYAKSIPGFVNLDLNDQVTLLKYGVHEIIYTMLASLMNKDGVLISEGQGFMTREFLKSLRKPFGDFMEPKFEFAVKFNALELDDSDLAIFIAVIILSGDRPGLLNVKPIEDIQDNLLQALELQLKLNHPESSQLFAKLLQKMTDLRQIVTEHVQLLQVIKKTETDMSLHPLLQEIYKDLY
Records with an inconclusive call do not appear. Active and inactive are the calls of the source. How the source made its calls: active means hit-call score of the fitted dose curve at least 0.9, where 1 is the maximum; inconclusive means response in the unintended direction; inactive means score below 0.9.
Give one outcome, nothing more. List: TRUE = active, FALSE = inactive

Solved cases below.
Any idea what this test logged for CCCCCC/C=C\CCCCCCCC(=O)O ?
FALSE

Any idea what this test logged for C=CCOc1c(Br)cc(Br)cc1Br ?
FALSE

Any idea what this test logged for c1cc(C(c2ccc(OCC3CO3)cc2)C(c2ccc(OCC3CO3)cc2)c2ccc(OCC3CO3)cc2)ccc1OCC1CO1 (configuration not stated) ?
FALSE

Any idea what this test logged for Cc1cccc(N(C)C(=S)Oc2ccc3ccccc3c2)c1 ?
TRUE

Any idea what this test logged for Nc1nc2ccccc2[nH]1 ?
FALSE

Continuing:
Any idea what this test logged for CCOC(=O)CC ?
FALSE

Any idea what this test logged for COc1ccc(-c2coc3cc(O)ccc3c2=O)cc1 ?
FALSE

Any idea what this test logged for Nc1ccc(N=Nc2ccccc2)c(N)n1 ?
TRUE

Any idea what this test logged for O=C(Cl)c1cc(C(=O)Cl)cc(C(=O)Cl)c1 ?
FALSE
